- System: MCF10A
- assay_summary: 5+ nucleoli phenotype percent effect (relative to siNT 0% and siKIF11 100%); higher = more cells with five or more nucleoli
- run_conditions: 20 nM; 72 h
The sequences listed here are annotated with their 5+ nucleoli phenotype percent effect.
Give just the number in %; leave the unit off.

The cases that follow already have their 5+ nucleoli phenotype percent effect on record.
- chain_sequence: "GCCCAAAGGUGAAUUUUUUGGG [hsa-miR-186-3p]"
  test_target: "MCF10A"
  unit_symbol: "%"
  number: 26.4
- chain_sequence: "AACAUCACAGCAAGUCUGUGCU [hsa-miR-499a-3p]"
  test_target: "MCF10A"
  unit_symbol: "%"
  number: -38.3
- chain_sequence: "AAACAUUCGCGGUGCACUUCUU [hsa-miR-543]"
  test_target: "MCF10A"
  unit_symbol: "%"
  number: 0.749
- chain_sequence: "CAGUGGUUUUACCCUAUGGUAG [hsa-miR-140-5p]"
  test_target: "MCF10A"
  unit_symbol: "%"
  number: -31.4

*Q* Form field: 5+ nucleoli phenotype percent effect recorded for AGUCAUUGGAGGGUUUGAGCAG [hsa-miR-616-3p] with MCF10A (enter value)
*A* -20

*Q* Also check GAGGGCAGAGCCAGCUUCCUGA [hsa-miR-7843-5p]
*A* 13.7

---

- Tested on: MCF10A
- assay_summary: one-nucleolus phenotype percent effect (relative to siNT 0% and siNOL11 100%); higher = more cells with one nucleolus (ribosome biogenesis inhibition)
- run_conditions: 20 nM; 72 h
The sequences listed here are annotated with their one-nucleolus phenotype percent effect.
Give just the number in %; leave the unit off.

The cases that follow already have their one-nucleolus phenotype percent effect on record.
- chain_sequence: "CCUCAAAUGUGGAGCACUAUUCU [hsa-miR-372-5p]"
  unit_symbol: "%"
  one-nucleolus phenotype percent effect: -27.9
- chain_sequence: "GCAGGAACUUGUGAGUCUCCU [hsa-miR-873-5p]"
  unit_symbol: "%"
  one-nucleolus phenotype percent effect: -17.4
- chain_sequence: "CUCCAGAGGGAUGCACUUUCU [hsa-miR-525-5p]"
  unit_symbol: "%"
  one-nucleolus phenotype percent effect: 20.6

*Q* Consider the sequence shown here: CAGUGGCCAGAGCCCUGCAGUG [hsa-miR-3677-5p] What is its recorded one-nucleolus phenotype percent effect?
*A* 16.6

*Q* Also check UCUGAAUUGUAAGAGUUGUUA [hsa-miR-4680-3p]
*A* -21.5

---

The sequences listed here are annotated with their one-nucleolus phenotype percent effect.
- Tested on: MCF10A
- assay_summary: one-nucleolus phenotype percent effect (relative to siNT 0% and siNOL11 100%); higher = more cells with one nucleolus (ribosome biogenesis inhibition)
- run_conditions: 20 nM; 72 h
Give just the number in %; leave the unit off.

The cases that follow already have their one-nucleolus phenotype percent effect on record.
- chain_sequence: "AGGCUGCGGAAUUCAGGAC [hsa-miR-604]"
  one-nucleolus phenotype percent effect / %: 29.2
- chain_sequence: "UGUUCUCUUUGCCAAGGACAG [hsa-miR-2117]"
  one-nucleolus phenotype percent effect / %: -0.405
- chain_sequence: "CUACAAAGGGAAGCACUUUCUC [hsa-miR-524-5p]"
  one-nucleolus phenotype percent effect / %: 17.4

Below: the item to evaluate.
*Q* Form field: one-nucleolus phenotype percent effect recorded for AUCUAAAUGCAGCAUGCCAGUC [hsa-miR-4799-5p] with MCF10A (enter value)
*A* -0.603

---

- System: MCF10A
- assay_summary: 5+ nucleoli phenotype percent effect (relative to siNT 0% and siKIF11 100%); higher = more cells with five or more nucleoli
- run_conditions: 20 nM; 72 h
The sequences listed here are annotated with their 5+ nucleoli phenotype percent effect.
Give just the number in %; leave the unit off.

The cases that follow already have their 5+ nucleoli phenotype percent effect on record.
- chain_sequence: "UCCCCUCCACUUUCCUCCUAG [hsa-miR-6887-3p]"
  parameter_measured: "5+ nucleoli phenotype percent effect"
  unit_symbol: "%"
  number: -13.1
- chain_sequence: "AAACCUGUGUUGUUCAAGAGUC [hsa-miR-649]"
  parameter_measured: "5+ nucleoli phenotype percent effect"
  unit_symbol: "%"
  number: 34.7
- chain_sequence: "AUAGCAGCAUAAGCCUGUCUC [hsa-miR-4524b-5p]"
  parameter_measured: "5+ nucleoli phenotype percent effect"
  unit_symbol: "%"
  number: -6.19

*Q* Form field: 5+ nucleoli phenotype percent effect recorded for GGGUUUGUAGCUUUGCUGGCAUG [hsa-miR-5087] with MCF10A (enter value)
*A* 6.11

*Q* Also check UGUGUUAGAAUAGGGGCAAUAA [hsa-miR-3152-3p]
*A* -11.7

*Q* Also check GUGCAUGGCUGUAUAUAUAACA [hsa-miR-5011-3p]
*A* 19.5

---

- Test system: MCF10A
- assay_summary: one-nucleolus phenotype percent effect (relative to siNT 0% and siNOL11 100%); higher = more cells with one nucleolus (ribosome biogenesis inhibition)
- run_conditions: 20 nM; 72 h
parameter_measured: one-nucleolus phenotype percent effect (%)
Give just the number in %; leave the unit off.

The cases that follow already have their one-nucleolus phenotype percent effect on record.
- chain_sequence: "UGGGUGUAGGCUGGAGCUGAGG [hsa-miR-6772-5p]"
  unit_symbol: "%"
  one-nucleolus phenotype percent effect: 23.4
- chain_sequence: "GUGGUUAUCCCUGCUGUGUUCG [hsa-miR-487a-5p]"
  unit_symbol: "%"
  one-nucleolus phenotype percent effect: -14.4
- chain_sequence: "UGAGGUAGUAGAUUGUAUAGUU [hsa-let-7f-5p]"
  unit_symbol: "%"
  one-nucleolus phenotype percent effect: -20.6
- chain_sequence: "UGAGACCUCUGGGUUCUGAGCU [hsa-miR-769-5p]"
  unit_symbol: "%"
  one-nucleolus phenotype percent effect: 7.1
- chain_sequence: "GGGGCCUGGCGGUGGGCGG [hsa-miR-2861]"
  unit_symbol: "%"
  one-nucleolus phenotype percent effect: -37.2
- chain_sequence: "AAAGGCAUAAAACCAAGACA [hsa-miR-3910]"
  unit_symbol: "%"
  one-nucleolus phenotype percent effect: 97

*Q* Consider the sequence shown here: GAACUCACCCUCUGCUCCCAG [hsa-miR-6750-3p] What is its recorded one-nucleolus phenotype percent effect?
*A* -8.73

*Q* Also check UCUCUGAGUACCAUAUGCCUUGU [hsa-miR-3921]
*A* -20.1

*Q* Also check UGUCUCUGCUGGGGUUUCU [hsa-miR-593-3p]
*A* 55.4

*Q* Also check UGUGACAGAUUGAUAACUGAAA [hsa-miR-542-3p]
*A* 65.1

*Q* Also check AAAAGCUGGGUUGAGAGGGCAA [hsa-miR-320b]
*A* 8.28

*Q* Also check AAGCUCAGGUUUGAGAACUGCUGA [hsa-miR-6854-5p]
*A* 18.3

---

- Tested on: MCF10A
- assay_summary: percent viability (nuclei count relative to siNT); higher = more viable cells
- run_conditions: 20 nM; 72 h
The sequences listed here are annotated with their percent viability.
Give just the number in %; leave the unit off.

*Q* Consider the sequence shown here: UGCAAAAGUAAUCACAGUUUUU [hsa-miR-548f-5p] What is its recorded percent viability?
*A* 75.6

---

The sequences listed here are annotated with their one-nucleolus phenotype percent effect.
- System: MCF10A
- assay_summary: one-nucleolus phenotype percent effect (relative to siNT 0% and siNOL11 100%); higher = more cells with one nucleolus (ribosome biogenesis inhibition)
- run_conditions: 20 nM; 72 h
Give just the number in %; leave the unit off.

- chain_sequence: "AGAAUUGCGUUUGGACAAUCAGU [hsa-miR-2964a-3p]"
  parameter_measured: "one-nucleolus phenotype percent effect"
  unit_symbol: "%"
  number: 34.8
- chain_sequence: "CUCCCACAUGCAGGGUUUGCA [hsa-miR-188-3p]"
  parameter_measured: "one-nucleolus phenotype percent effect"
  unit_symbol: "%"
  number: -6.75
- chain_sequence: "GGCUCAAUCUCUGGUCCUGCAGCC [hsa-miR-7158-5p]"
  parameter_measured: "one-nucleolus phenotype percent effect"
  unit_symbol: "%"
  number: -21.5

*Q* Consider the sequence shown here: UAGUUCUUCCCUUUGCCCAAUU [hsa-miR-5584-3p] What is its recorded one-nucleolus phenotype percent effect?
*A* 5.26

*Q* Also check GCUCAUCCCCAUCUCCUUUCAG [hsa-miR-6870-3p]
*A* -31.1

*Q* Also check AAAUGUCACCUUUUUGAGAGGA [hsa-miR-513b-3p]
*A* -7.38

---

The sequences listed here are annotated with their one-nucleolus phenotype percent effect.
- Tested on: MCF10A
- assay_summary: one-nucleolus phenotype percent effect (relative to siNT 0% and siNOL11 100%); higher = more cells with one nucleolus (ribosome biogenesis inhibition)
- run_conditions: 20 nM; 72 h
Give just the number in %; leave the unit off.

The cases that follow already have their one-nucleolus phenotype percent effect on record.
- chain_sequence: "AUCCGCGCUCUGACUCUCUGCC [hsa-miR-937-3p]"
  one-nucleolus phenotype percent effect [%]: -5.97
- chain_sequence: "AGAAAGGGUGGCAAUACCUCUU [hsa-miR-5681a]"
  one-nucleolus phenotype percent effect [%]: 114
- chain_sequence: "UGUAGGCAUGAGGCAGGGCCCAGG [hsa-miR-6806-5p]"
  one-nucleolus phenotype percent effect [%]: -16.3
- chain_sequence: "UCAUAGCCCUGUACAAUGCUGCU [hsa-miR-103b]"
  one-nucleolus phenotype percent effect [%]: 72.9
- chain_sequence: "GUGCCACCUUAACUGCAGCCAAU [hsa-miR-4715-3p]"
  one-nucleolus phenotype percent effect [%]: 6.34

*Q* Consider the sequence shown here: AUCAUGAUGGGCUCCUCGGUGU [hsa-miR-433] What is its recorded one-nucleolus phenotype percent effect?
*A* -2.79

*Q* Also check AGGGACUGCCUUAGGAGAAAGUU [hsa-miR-3199]
*A* -15.3

*Q* Also check UGGUGGUUUACAAAGUAAUUCA [hsa-miR-876-3p]
*A* 57.7

*Q* Also check UGCAGGGGUCGGGUGGGCCAGG [hsa-miR-6722-3p]
*A* 9

*Q* Also check UUCAUUUGGUAUAAACCGCGAUU [hsa-miR-579]
*A* 45.1

*Q* Also check CUCUAGAGGGAAGCACUUUCUC [hsa-miR-518f-5p]
*A* 8.67

*Q* Also check UGGCCCAACCUAUUCAGUUAGU [hsa-miR-3136-3p]
*A* -25.2

*Q* Also check GUGUGACCACCGUUCCUGCAG [hsa-miR-6808-3p]
*A* 28.3

Measured values drawn from the supplement of paper PMC10899765 for this set.
